- ASSAYED TARGET: T1, hPh1 FCS domain (Polyhomeotic homolog 1) (human, UniProt P78364 783-828)
- T1 chain: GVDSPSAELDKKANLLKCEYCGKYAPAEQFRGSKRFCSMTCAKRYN
- ASSAY COMMENT: NMR HSQC titration
REPORTED ENDPOINT: pKd
Bear in mind: pKd is minus log10 of a mol/L concentration; give just that figure.

Qu. Entry GGGCACGCGUAUUGCCCUAGUGGCCGGCGUGCCC (structured_RNA) [34nt RNA] has what pKd?
Ans. 2.52
